The measured values listed here are drawn from patent US10882856B2.

target: IDO1 (Homo sapiens); test: Hela cell-based IDO1 assay; conditions: Hela cells
endpoint-name: pEC50
Hey, just a heads up that pEC50 is the negative log base 10 of the concentration in molar.

Sample answers from the record:
OC(c1c(C2CC2)ccn2cncc12)C1CCC(c2ccc(C(F)(F)F)nc2)CC1 (stereo not shown) = 5.66
OC(c1c(C2CC2)ccc2cncn12)[C@H]1CC[C@H](c2ccc(OC3CCOCC3)cc2)CC1 (single isomer, unassigned) [Example D114b] = 5.40

Report pEC50 under test system IDO1 (Homo sapiens) for OC(c1c(C2CC2)ccc2cncn12)C1CCC(c2csc3ccccc23)CC1 (stereo not shown) . 7.06

Fill in: pEC50 on IDO1 (Homo sapiens), entry OC(c1c(C2CC2)ccc2cncn12)C1CCC(c2ccc(OC3CCOCC3)cc2)CC1 (stereo not shown) 6.81

Give pEC50 for COc1ccc(C2CCC(C(O)c3c(C4CC4)ccc4cncn34)CC2)c(Cl)c1 (stereo not shown) tested on IDO1 (Homo sapiens). 6.35

Give pEC50 for this entry on IDO1 (Homo sapiens): OC(c1c(C2CC2)ccc2cncn12)C1CCC(c2ccc3ccccc3c2)CC1 (stereo not shown) 6.45

====

Each record here notes measured pIC50.
target: IDO1 (Homo sapiens); experiment: IDO1 enzymatic assay; type: biochemical; set-up: His tag (N); made in house; host or cells: E. coli; conditions: read-out: Enzyme IC50 IDO1
Value format note: pIC50 is -log10 of concentration (mol/L); just state the number.

Fetch value of pIC50 on IDO1 (Homo sapiens) for OC(c1c(C2CC2)ccc2cncn12)C1CCC(c2ccnc3c(F)cccc23)CC1 (stereo not shown) . 7.48

Jot down pIC50 (IDO1 (Homo sapiens)) of O[C@H](c1c(C2CC2)ccc2cncn12)[C@H]1CC[C@H](c2ccc(F)c(F)c2F)CC1 (single isomer, unassigned) [Example D145a] . 7.72

Name the recorded pIC50 of COc1cccc([C@H]2CC[C@H]([C@H](O)c3c(C4CC4)ccn4cncc34)CC2)c1 (single isomer, unassigned) [Example C114a] , assay system IDO1 (Homo sapiens). 7.57

Answer with pIC50 of O[C@H](c1cc(Cl)cc2cncn12)[C@H]1CC[C@H](c2ccc3ccccc3c2)CC1 (single isomer, unassigned) [Example E104a] measured for IDO1 (Homo sapiens). 7.54

Provide measured pIC50 on IDO1 (Homo sapiens) for Nc1ccc(C2CCC(C(O)c3c(C4CC4)ccc4cncn34)CC2)cc1 (stereo not shown) please. 7.55

// fetch pIC50 for O[C@@H](c1c(C2CC2)ccc2cncn12)[C@H]1CC[C@H](c2ccc(F)c3ccccc32)CC1 (single isomer, unassigned) [Example D137b] ; system: IDO1 (Homo sapiens) 5.77

Give IDO1 (Homo sapiens) pIC50 for the following molecule: O[C@H](c1c(C2CC2)ccc2cncn12)C1CCN(c2cccc(F)c2)CC1 [Example D172a] 7.85

====

target: IDO1 (Homo sapiens, UniProt P14902); test: Hela cell-based IDO1 assay; settings: Hela cells
Sequence (P14902 whole entry): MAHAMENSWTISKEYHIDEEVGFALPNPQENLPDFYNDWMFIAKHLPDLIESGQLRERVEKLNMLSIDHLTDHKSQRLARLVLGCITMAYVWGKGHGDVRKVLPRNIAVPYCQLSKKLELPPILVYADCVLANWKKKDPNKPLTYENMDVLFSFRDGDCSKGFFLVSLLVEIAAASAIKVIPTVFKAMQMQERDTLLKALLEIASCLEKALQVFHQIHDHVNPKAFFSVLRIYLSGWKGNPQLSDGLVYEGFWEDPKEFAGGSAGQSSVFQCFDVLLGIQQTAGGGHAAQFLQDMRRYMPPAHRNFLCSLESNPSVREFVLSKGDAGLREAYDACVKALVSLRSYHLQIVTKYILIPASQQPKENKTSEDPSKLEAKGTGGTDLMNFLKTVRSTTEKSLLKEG
endpoint-name: EC50

State the measured EC50 (IDO1 (Homo sapiens, UniProt P14902)) of Oc1ccc([C@H]2CC[C@H](C(O)c3c(C4CC4)ccn4cncc34)CC2)cc1 (single isomer, unassigned) [Example C104b] > 10000 nM

Give EC50 only, for OC(c1c(C2CC2)ccn2cncc12)C1CCN(c2ccccn2)CC1 (stereo not shown) , using IDO1 (Homo sapiens, UniProt P14902) data. 2230 nM

# assay system IDO1 (Homo sapiens, UniProt P14902): give EC50 of OC(c1cc(Cl)cc2cncn12)C1CCC(c2ccc3ccccc3c2)CC1 (stereo not shown) 5440 nM

Determine reported EC50 for N#Cc1ccc(N2CCC(C(O)c3c(C4CC4)ccn4cncc34)CC2)cc1 (stereo not shown) [Example C144] ; test system: IDO1 (Homo sapiens, UniProt P14902). 748 nM

Please look at OC(c1c(C2CC2)ccc2cncn12)C1CCC(c2ccc(OC(F)(F)F)cc2)CC1 (stereo not shown) and tell me its recorded EC50 on IDO1 (Homo sapiens, UniProt P14902). 869 nM

# assay system IDO1 (Homo sapiens, UniProt P14902): give EC50 of O[C@H](c1c(C2CC2)ccc2cncn12)C1CCN(c2ccc(F)c3ncccc23)CC1 (single isomer, unassigned) [Example D175a] 7.7 nM

Recall the reported EC50 of OC(c1c(C2CC2)ccc2cncn12)C1CCC(c2ccnc3ccccc23)CC1 (stereo not shown) on IDO1 (Homo sapiens, UniProt P14902) and write it down. 42 nM

Print IDO1 (Homo sapiens, UniProt P14902) EC50 for Cc1ccc([C@H]2CC[C@H]([C@@H](O)c3c(C4CC4)ccn4cncc34)CC2)cc1 (single isomer, unassigned) [Example C110b] . > 10000 nM

Specify the recorded EC50 for O[C@H](c1c(C2CC2)ccc2cncn12)[C@H]1CC[C@H](c2cccc3ccccc32)CC1 (single isomer, unassigned) [Example D135a] , system: IDO1 (Homo sapiens, UniProt P14902). 32 nM

Return reported EC50 for target or system IDO1 (Homo sapiens, UniProt P14902), item O[C@H](c1c(C2CC2)ccn2cncc12)[C@H]1CC[C@H](c2cccc3ccccc32)CC1 (single isomer, unassigned) [Example C121a] . 59 nM

GET EC50 | system: IDO1 (Homo sapiens, UniProt P14902) | item: OC(c1c(C2CC2)ccc2cncn12)C1CCC(c2ccc(Cl)c(F)c2)CC1 (stereo not shown) 260 nM

====

biological target: IDO1 (Homo sapiens, UniProt P14902); assay: Hela cell-based IDO1 assay; conditions: Hela cells
pEC50: −log10 of the molar value.
I would appreciate it if you labelled entries Y when pEC50 is 6 or higher, otherwise N.

I'd appreciate it if you could say whether CC(C)c1ccc2cncn2c1[C@@H](O)[C@H]1CC[C@H](c2cccc(F)c2)CC1 (single isomer, unassigned) [Example D167a] has pEC50 at least equal to 6. Y

Check this molecule for pEC50 at or above 6: O[C@H](c1c(C2CC2)ccc2cncn12)[C@H]1CC[C@H](c2cccc(F)c2)CC1 (single isomer, unassigned) [Example D156a] Y

====

target: IDO1 (Homo sapiens, UniProt P14902); assay: Hela cell-based IDO1 assay; settings: Hela cells
pEC50: −log10 of the molar value.
Response key: condition met means pEC50 >= 7; condition not met means pEC50 < 7.

// known answers, use as guide
OC(c1c(C2CC2)ccn2cncc12)C1CCC(c2ccc3ccccc3c2)CC1 (stereo not shown) = condition not met
O[C@H](c1c(C2CC2)ccc2cncn12)[C@H]1CC[C@H](c2ccc(Br)cc2)CC1 (single isomer, unassigned) [Example D118a] = condition not met
O[C@H](c1c(C2CC2)ccn2cncc12)[C@H]1CC[C@H](c2ccnc3ccccc32)CC1 (single isomer, unassigned) [Example C130a] = condition met

Is the recorded value of pEC50 equal to or greater than 7 for this compound? OC(c1c(C2CC2)ccn2cncc12)C1CCC(c2cccc3ncccc23)CC1 (stereo not shown) condition met

Decide: pEC50 of OCCn1cc(-c2ccc(N3CCC(C(O)c4c(C5CC5)ccn5cncc45)CC3)cc2)cn1 (stereo not shown) >= 7? condition not met

Is the recorded value of pEC50 equal to or greater than 7 for this compound? CNC(=O)c1ccc(C2CCC(C(O)c3c(C4CC4)ccc4cncn34)CC2)cc1 (stereo not shown) condition not met

====

Listed next: entries and their corresponding log10(IC50).
molecular target: UniProtKB P14902; assay: IDO1 enzymatic assay; format: biochemical; set-up: His tag (N); made in house; host or cells: E. coli; settings: read-out: Enzyme IC50 IDO1
Structures can show the parent of a compound that is named as a salt.
log10 IC50, nM

As a guide, the following entries are already answered.
OC(c1c(C2CC2)ccn2cncc12)C1CCN(c2ccc(Cl)c3ncccc23)CC1 (stereo not shown) [Example C154] = 1.56
O[C@H](c1c(C2CC2)ccn2cncc12)[C@H]1CC[C@H](c2cccc3ccccc32)CC1 (single isomer, unassigned) [Example C121a] = 1.59
COc1cccc([C@H]2CC[C@H]([C@@H](O)c3c(C4CC4)ccn4cncc34)CC2)c1 (single isomer, unassigned) [Example C114b] = 3.67

Using known records, supply log10(IC50) for O[C@H](c1cc(Cl)cc2cncn12)[C@H]1CC[C@H](c2ccc(Cl)cc2)CC1 (single isomer, unassigned) [Example E101a] 1.43

Using known records, supply log10(IC50) for COc1ccc([C@H]2CC[C@H](C(O)c3c(C4CC4)ccc4cncn34)CC2)cc1Cl (single isomer, unassigned) [Example D148a, hydrochloride] 1.23

Return log10(IC50) (reported value) for this compound: OC(c1c(C2CC2)ccn2cncc12)C1CCN(c2cccc(Cl)c2)CC1 (stereo not shown) [Example C140] 2.15

====

biological target: IDO1 (Homo sapiens); assay: IDO1 enzymatic assay; assay type: biochemical; parameters: His tag (N); made in house; host or cells: E. coli; conditions: read-out: Enzyme IC50 IDO1
The compounds listed here are annotated with their IC50.
Number in nM, nothing else.

N#Cc1ccc([C@H]2CC[C@H](C(O)c3c(C4CC4)ccn4cncc34)CC2)cc1 (single isomer, unassigned) [Example C106b] = 2300

Give the reported IC50 for this compound. Oc1ccccc1[C@H]1CC[C@H]([C@H](O)c2c(C3CC3)ccc3cncn23)CC1 (single isomer, unassigned) [Example D112a] 15
